Molecular target: calcineurin (CaN; CnAα catalytic subunit) (Homo sapiens, UniProt Q08209)
Construct: gene PPP3CA; recombinant human CaN, comprising CnAα and CnB subunits; with calcineurin B (CnB); calmodulin
Experiment: malachite green phosphatase assay with RII phosphopeptide
Assay type: biochemical
observationType: pIC50
One number for each entry, as −log10 of the molar value.

Prompt: Which pIC50 reading was recorded for the compound O=C(O)[C@@H]1[C@H](C(=O)O)[C@H]2CC[C@@H]1O2 [endothall] ?
Completion: 4.90

###

Biological target: calcineurin (CaN; CnAα catalytic subunit) (Homo sapiens, UniProt Q08209)
Construct: gene PPP3CA; recombinant human CaN, comprising CnAα and CnB subunits; with calcineurin B (CnB); calmodulin
Assay: malachite green phosphatase assay with RII phosphopeptide, absorbance dose-response, calmodulin present
Type: biochemical
Settings: read-out: IC50
Where a name gives a salt, the structure may show the parent alone.
observationType: pIC50
Answers are plain numbers, as −log10 of the molar value.

Prompt: Requested field: pIC50. Item: Fc1ccc(C(c2ccc(F)cc2)N2CCN(C/C=C/c3ccccc3)CC2)cc1 [LDN-0013905, flunarizine hydrochloride]
Completion: 3.97
